system: Pythium ultimum; assay: Mycelial growth test; type: cell-based; conditions: Globisporangium ultimum, 72 h, PU, 40 ppm, read-out: Percent Fungus Growth Inhibition
result type: inhibition at 40 ppm (%)
# unit: % | format: bare number

Sample records with inhibition at 40 ppm:
O=c1c(Cl)nsnc1Oc1ccc(F)cc1 ... 100
CC(=O)Nc1ccc(Oc2nsnc(Cl)c2=O)cc1 ... 100
Cc1cccc(C)c1Oc1nsnc(Cl)c1=O ... 100
Cc1cc(Oc2nsnc(Cl)c2=O)cc(C)c1Cl ... 29

GET /values?readout=inhibition at 40 ppm&item= CC(=O)Nc1ccccc1Oc1nsnc(Cl)c1=O
0

Any idea what its inhibition at 40 ppm is? The molecule is COc1ccc(Cl)c(Oc2nsnc(Cl)c2=O)c1
100

Field request: inhibition at 40 ppm | item: Cc1ccc(Oc2nsnc(Cl)c2=O)cc1
100

Quick one: inhibition at 40 ppm for Cc1cc(Cl)ccc1Oc1nsnc(Cl)c1=O ?
47

// lookup inhibition at 40 ppm for Cc1ccccc1Oc1nsnc(Cl)c1=O
100

----------
test system: Pythium ultimum; experiment: Mycelial growth test; assay type: cell-based; details: Globisporangium ultimum, 72 h, PU, 40 ppm, read-out: Percent Fungus Growth Inhibition
We begin with a simple list: items and their reported inhibition at 40 ppm.
Please respond with the number in % and leave the unit unwritten.

Answered examples (3):
Cc1cccc(Oc2nsnc(Cl)c2=O)c1 ... 100
O=c1c(Cl)nsnc1Oc1cccc2ccccc12 ... 100
O=c1c(Cl)nsnc1Oc1ccccc1 ... 100

Form entry - test system: Pythium ultimum; read-out: inhibition at 40 ppm; molecule: CC(C)(C)c1ccc(Oc2nsnc(Cl)c2=O)cc1
0

Form: Entry = O=C(O)Cc1ccccc1Oc1nsnc(Cl)c1=O | System = Pythium ultimum | inhibition at 40 ppm = ____
100

----------
tested on: Alternaria solani; assay: Mycelial growth test; assay type: cell-based; conditions: Alternaria solani, 72 h, AS, 10 ppm, read-out: Percent Fungus Growth Inhibition
# inhibition at 10 ppm per entry
Express the result in % but write the number alone.

O=c1c(Cl)nsnc1Oc1ccc([N+](=O)[O-])cc1Cl ... 42
O=c1c(Cl)nsnc1Oc1c(Cl)c(Cl)c(Cl)c(Cl)c1Cl ... 60
CC(C)(C)c1ccc(Oc2nsnc(Cl)c2=O)cc1 ... 13

# get_value(readout= inhibition at 10 ppm, system= Alternaria solani) for Cc1cc(Oc2nsnc(Cl)c2=O)ccc1Cl
100

State its inhibition at 10 ppm on Alternaria solani: O=c1c(Cl)nsnc1Oc1ccc(O)cc1
100

----------
tested on: Fusarium solani; test: Mycelial growth test; format: cell-based; settings: Fusarium solani, 72 h, PS, 5 ppm, 72 hours; read-out: Percent Fungus Growth Inhibition
The compounds listed here are annotated with their inhibition at 5 ppm.
Your answer is read as %, so omit the unit and give the number.

O=c1c(Cl)nsnc1Oc1ccccc1Br ... 13
Cc1ccc(Oc2nsnc(Cl)c2=O)cc1 ... 35
Cc1ccc(Cl)c(Oc2nsnc(Cl)c2=O)c1 ... 70

Pending compound:
Form field: reported inhibition at 5 ppm of Cc1cc(Cl)c(Oc2nsnc(Cl)c2=O)cc1C
56

----------
system: Phytophthora infestans; assay type: cell-based; conditions: PI, 2.5 ppm, 48 hours
Items are presented alongside their recorded Spore Germination Rating.

Check out these entries, answers already filled in.
O=c1c(Cl)nsnc1Oc1ccc(Cl)cc1 ... 1 (10-40)
CCOC(=O)c1ccc(Oc2nsnc(Cl)c2=O)cc1 ... 0 (0-10)
Cc1cc(C)cc(Oc2nsnc(Cl)c2=O)c1 ... 1 (10-40)

Dear colleague, I am looking for the recorded Spore Germination Rating of the following compound: O=c1c(Cl)nsnc1Oc1cc(Cl)cc(Cl)c1
0 (0-10)

Any idea what its Spore Germination Rating is? The compound is Cc1cc(Cl)ccc1Oc1nsnc(Cl)c1=O
0 (0-10)

----------
tested on: Uromyces phaseoli; assay: whole plant or invertebrate; conditions: foliar, read-out: Percent Disease Control, foliar, bean rust
// values below are reported pest or weed control at 150 ppm
// units = %; emit number, no label

Sample answers from the record:
Cc1ccc(Oc2nsnc(Cl)c2=O)c(Br)c1 [Compound 57] ... 100
O=c1c(Cl)nsnc1Oc1ccc(Br)cc1 [Compound 15] ... 100
O=c1c(Cl)nsnc1Oc1ccccc1Br [Compound 34] ... 85
CCOC(=O)c1ccc(Oc2nsnc(Cl)c2=O)cc1 [Compound 7] ... 100
CS(=O)(=O)c1ccc(Oc2nsnc(Cl)c2=O)cc1 [Compound 41] ... 0

Record request: pest or weed control at 150 ppm value, item O=c1c(Cl)nsnc1Oc1ccc(Cl)cc1Cl [Compound 17]
100

What does the data say about its pest or weed control at 150 ppm? Entry: O=c1c(Cl)nsnc1Oc1c(Cl)cc(Cl)cc1Cl [Compound 30]
100

Which pest or weed control at 150 ppm is listed for COc1cc(Cl)cc(Oc2nsnc(Cl)c2=O)c1 [Compound 52] ?
0

Can you look up the measured pest or weed control at 150 ppm of Cc1cc(Oc2nsnc(Cl)c2=O)ccc1Cl [Compound 54] for me?
100

Which pest or weed control at 150 ppm reading was recorded for the molecule O=c1c(Cl)nsnc1Oc1ccc(O)cc1 [Compound 35] ?
100

Item O=C(Nc1ccccc1)Nc1ccc(Oc2nsnc(Cl)c2=O)cc1 [Compound 29] has what recorded pest or weed control at 150 ppm?
0

----------
system: Botrytis cinerea; assay: Spore germination test; format: cell-based; details: BC, 1.0 ppm, 48 hours
result type: Spore Germination Rating

Consider the following illustrative entries.
O=c1c(Cl)nsnc1Oc1ccccc1 ... 4 (80-100)
O=C(OCc1ccccc1)Oc1ccc(Oc2nsnc(Cl)c2=O)cc1 ... 4 (80-100)

Entry O=C(O)Cc1ccccc1Oc1nsnc(Cl)c1=O has what Spore Germination Rating?
4 (80-100)

Find the recorded Spore Germination Rating belonging to CSc1ccc(Oc2nsnc(Cl)c2=O)cc1 and report it.
4 (80-100)

Quick check: Spore Germination Rating of CNC(=O)Nc1ccc(Oc2nsnc(Cl)c2=O)cc1 ?
4 (80-100)

// Spore Germination Rating lookup, key: Cc1ccc(Oc2nsnc(Cl)c2=O)cc1
4 (80-100)

Recorded Spore Germination Rating of O=C(Nc1ccccc1)Oc1ccc(Oc2nsnc(Cl)c2=O)cc1 , please.
4 (80-100)

Sample O=c1c(Cl)nsnc1Oc1ccc(Cl)cc1Cl — what was its Spore Germination Rating?
4 (80-100)

Which Spore Germination Rating value is on record for CS(=O)(=O)c1ccc(Oc2nsnc(Cl)c2=O)cc1 ?
0 (0-10)

Fill in the blank: the reported Spore Germination Rating of O=c1c(Cl)nsnc1Oc1ccc(F)cc1 is ____.
4 (80-100)

What value of Spore Germination Rating has been recorded for this entry: Cc1cccc(C)c1Oc1nsnc(Cl)c1=O
3 (60-80)

Return reported Spore Germination Rating; argument: Cc1ccc(Cl)c(Oc2nsnc(Cl)c2=O)c1
4 (80-100)

----------
test system: Fusarium solani; assay: Mycelial growth test; type: cell-based; conditions: Fusarium solani, 72 h, PS, 5 ppm, 72 hours; read-out: Percent Fungus Growth Inhibition
inhibition at 5 ppm of 40% or higher: condition met. Under 40%: condition not met.

Examples with answers:
O=c1c(Cl)nsnc1Oc1ccc([N+](=O)[O-])cc1Cl ... condition met
O=c1c(Cl)nsnc1Oc1ccc(Cl)cc1 ... condition met
O=c1c(Cl)nsnc1Oc1ccc(Cl)cc1Cl ... condition met
O=C(O)Cc1ccccc1Oc1nsnc(Cl)c1=O ... condition not met
O=C(Nc1ccccc1)Nc1ccc(Oc2nsnc(Cl)c2=O)cc1 ... condition not met
COc1ccc(Cl)c(Oc2nsnc(Cl)c2=O)c1 ... condition met

Threshold query (inhibition at 5 ppm >= 40%) on CCOC(=O)c1ccc(Oc2nsnc(Cl)c2=O)cc1
condition met

Hi, just wondering whether O=c1c(Cl)nsnc1Oc1ccc(Cl)c(Cl)c1 shows inhibition at 5 ppm of 40% or higher.
condition met

Test whether the molecule Cc1cccc(C)c1Oc1nsnc(Cl)c1=O records inhibition at 5 ppm of 40% or higher.
condition not met

// inclusive: inhibition at 5 ppm at least 40%? input: Cc1cc(Cl)ccc1Oc1nsnc(Cl)c1=O
condition not met

Could you tell me if the measured inhibition at 5 ppm of Cc1cccc(Oc2nsnc(Cl)c2=O)c1 reaches 40% or more?
condition not met

----------
tested on: Phytophthora infestans; type: cell-based; conditions: PI, 2.5 ppm, 48 hours
result type: Spore Germination Rating

Would you please look over these solved cases?
CNC(=O)Nc1ccc(Oc2nsnc(Cl)c2=O)cc1 [Compound 28] ... 4 (80-100)
Cc1ccc(Oc2nsnc(Cl)c2=O)c(Br)c1 [Compound 57] ... 1 (10-40)
Cc1cc(Cl)c(Oc2nsnc(Cl)c2=O)cc1C [Compound 58] ... 2 (40-60)
O=c1c(Cl)nsnc1Oc1ccc([N+](=O)[O-])cc1 [Compound 9] ... 0 (0-10)
COc1ccc(Oc2nsnc(Cl)c2=O)cc1 [Compound 5] ... 2 (40-60)

Request the reported Spore Germination Rating associated with Cc1ccc(Oc2nsnc(Cl)c2=O)cc1 [Compound 3]
2 (40-60)

Fill in the blank: the reported Spore Germination Rating of O=c1c(Cl)nsnc1Oc1ccccc1 [Compound 2] is ____.
1 (10-40)

Record request: Spore Germination Rating value, item N#CCc1ccc(Oc2nsnc(Cl)c2=O)cc1 [Compound 46]
1 (10-40)

Requested field: Spore Germination Rating. Item: O=c1c(Cl)nsnc1Oc1cccc(Cl)c1 [Compound 13]
0 (0-10)

// query Spore Germination Rating value for entry O=c1c(Cl)nsnc1Oc1c(Cl)c(Cl)c(Cl)c(Cl)c1Cl [Compound 31]
3 (60-80)

Entry under review: Nc1ccc(Oc2nsnc(Cl)c2=O)cc1 [Compound 26] . Reported Spore Germination Rating?
4 (80-100)
